- measuredTarget: Adenosine receptors; A1 & A2a (Homo sapiens) (UniProt P30542+P29274)
- assay: Selectivity for human adenosine A1 receptor over human adenosine A2A receptor
- Type: protein assay
measuredMetric: Ratio Ki

The cases that follow already have their Ratio Ki on record.
CCCn1c(=O)c2nc([C@]34CC[C@](C(=O)N(C)CC(=O)OC)(CC3)CC4)[nH]c2n(CCC)c1=O : > 89
CCCn1c(=O)c2nc([C@H]3CC[C@H](COCc4ccccc4)CC3)[nH]c2n(CCC)c1=O : 16
CCCn1c(=O)c2nc([C@]34CC[C@](C(=O)NCC(=O)O)(CC3)CC4)[nH]c2n(CCC)c1=O : 161
CCCn1c(=O)c2nc([C@]34CC[C@](C(=O)N5CCC(C(=O)O)CC5)(CC3)CC4)[nH]c2n(CCC)c1=O : 81
CCCn1c(=O)c2nc([C@]34CC[C@](CO)(CC3)CC4)[nH]c2n(CCC)c1=O : 26

List Ratio Ki for every entry below, keeping the order given.
1. CCCn1c(=O)c2nc([C@]34CC[C@](C(=O)NCCC(=O)OC)(CC3)CC4)[nH]c2n(CCC)c1=O
2. CCCn1c(=O)c2nc([C@H]3CC[C@H](CO)CC3)[nH]c2n(CCC)c1=O
3. CCCn1c(=O)c2nc([C@]34CC[C@](/C=C/C(=O)O)(CC3)CC4)[nH]c2n(CCC)c1=O

result:
63
8
333
